Measured NTS2 Emax % of 5b, listed per entry.
assayed_system: rNTS2 receptor (Rattus norvegicus)
Construct: expressed in transfected cells
Sequence (Q63384 whole entry): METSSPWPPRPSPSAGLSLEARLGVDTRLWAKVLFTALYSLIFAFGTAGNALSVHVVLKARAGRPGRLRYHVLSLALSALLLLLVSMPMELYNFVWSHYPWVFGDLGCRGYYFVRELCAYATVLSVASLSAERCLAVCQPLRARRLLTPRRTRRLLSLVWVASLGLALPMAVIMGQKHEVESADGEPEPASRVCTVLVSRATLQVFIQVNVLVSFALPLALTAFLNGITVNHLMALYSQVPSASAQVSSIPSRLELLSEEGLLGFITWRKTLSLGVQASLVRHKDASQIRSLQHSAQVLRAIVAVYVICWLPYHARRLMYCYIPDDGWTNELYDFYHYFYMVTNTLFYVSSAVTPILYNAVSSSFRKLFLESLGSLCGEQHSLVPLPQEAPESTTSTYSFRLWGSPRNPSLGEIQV
procedure_summary: Calcium mobilization assay for NTS2 receptor (FLIPR Tetra)
Type: cell-based
measurement_setup: FLIPR assay, calcium release relative to 5b; ± SEM

Ask | Record lookup: for rNTS2 receptor (Rattus norvegicus), what NTS2 Emax % of 5b belongs to COc1ccccc1-c1cc(C(=O)NC2(C(=O)O)C3CC4CC(C3)CC2C4)nn1-c1ccc(F)cc1 (centres unmarked) ?
Reply | 42 ± 12 % of 5b

Ask | Check COc1ccccc1-c1cc(C(=O)N[C@H](C(=O)O)C2CCCCC2)nn1-c1ccnc2cc(Cl)ccc12 [17b] too.
Reply | 25 ± 2 % of 5b

Ask | Check COc1ccccc1-c1cc(C(=O)N[C@H](C(=O)O)C2CCCCC2)nn1-c1cccc2ccccc12 [25b] too.
Reply | 18 ± 2 % of 5b

Ask | Check O=C(N[C@H](C(=O)O)C1CCCCC1)c1cc(-c2c(F)cccc2F)n(-c2ccnc3cc(Cl)ccc23)n1 [18b] too.
Reply | 15 ± 3 % of 5b

Please examine the following record next.
Ask | Record lookup: for rNTS2 receptor (Rattus norvegicus), what NTS2 Emax % of 5b belongs to COc1ccc(OC)c(-c2cc(C(=O)N[C@H](C(=O)O)C3CCCCC3)nn2-c2ccnc3cc(Cl)ccc23)c1 [15b] ?
Reply | 19 ± 3 % of 5b

---

Measured pKi, listed per entry.
assayed_system: rNTS2 receptor (Rattus norvegicus)
procedure_summary: 125I-NT competitive binding assay, whole CHO-kl cells over-expressing rNTS2
measurement_setup: competition with 125I-NT; ± SEM; read-out: 125I-NT Binding NTS2 Ki
In plain terms, pKi is the concentration in mol/L turned into minus its base-10 logarithm.

Ask | Report pKi for COc1cccc(OC)c1-c1cc(C(=O)NC2(C(=O)O)CCCCC2)nn1-c1ccnc2cc(Cl)ccc12 [21b] please.
Reply | 6.82

Ask | Check COc1ccccc1-c1cc(C(=O)NC2(C(=O)O)CCCCC2)nn1-c1cccc2ccccc12 [27b] too.
Reply | 6.16

Ask | Check COc1ccccc1-c1cc(C(=O)NC2(C(=O)O)CCCCC2)nn1-c1ccc(F)cc1 [7b] too.
Reply | 6.82

***
Ask | Report pKi for O=C(N[C@H](C(=O)O)C1CCCCC1)c1cc(-c2c(F)cccc2F)n(-c2ccnc3cc(Cl)ccc23)n1 [18b] please.
Reply | 6.00

Ask | Check COc1cccc(OC)c1-c1cc(C(=O)NC2(C(=O)O)CCCCC2)nn1-c1cccc2ccccc12 [26b] too.
Reply | 6.94

Ask | Check COc1cccc(OC)c1-c1cc(C(=O)NC2(C(=O)O)CCCC2)nn1-c1ccnc2cc(Cl)ccc12 [22b] too.
Reply | 6.99
